- System: choice of the large-but-delayed reward (impulsivity)
- Protocol: Rat T-maze procedure: large-but-delayed vs small-but-immediate reward
- Assay type: in vivo
- Test parameters: juvenile Wistar rats; placebo administered before control (pre-drug and post-drug) sessions of the same group
Quick reference for % Choice of the large but delayed reward on Control sessions among some compounds
Result type: % Choice of the large but delayed reward on Control sessions (%)

| Compound | Value observed |
| --- | --- |
| Cc1cc(N2CCOCC2)nc(C)c1NC(=O)CC(C)(C)C [Compound 3] | 8.3 |
| CNCC[C@@H](Oc1ccccc1C)c1ccccc1 [Atomoxetine, reference compound] | 10.7 |
| CCOC(=O)Nc1ccc(NCc2ccc(F)cc2)cc1N [Compound 1, reference compound] | 10.8 |
| COc1cc(N2CCOCC2)cc(C)c1NC(=O)CC1CCCC1 [Compound 2] | 11.7 |
